Experiment description: Luminescence activity assay of purified Gaussia luciferase mutants on coelenterazine
Assay type: biochemical
Design: key: ratio of mutant luminescence intensity to wild-type Gaussia luciferase
Test parameters: Substrate CTZ (Table 16)
Field: Activity of mutant relative to wild-type Gaussia luciferase without the signal peptide. Provide a value for each of the molecules that follow.
Answer with the value's number alone.

Please look at this molecule and report its Activity of mutant relative to wild-type Gaussia luciferase without the signal peptide: H79K P84K E102K S103I V138E: Gaussia luciferase mutant (protein, SIGNAL (1)..(17), Gaussia luciferase mutant) MGVKVLFALICIAVAEAKPTENNEDFNIVAVASNFATTDLDADRGKLPGKKLPLEVLKEMEANARKAGCTRGCLICLSKIKCTKKMKKFIPGRCHTYEGDKKIAQGGIGEAIVDIPEIPGFKDLEPMEQFIAQVDLCEDCTTGCLKGLANVQCSDLLKKWLPQRCATFASKIQGQVDKIKGAGGD
0.750

Please look at this molecule and report its Activity of mutant relative to wild-type Gaussia luciferase without the signal peptide: Q152H Q163D T167G S170V G174K Q175E K178N: Gaussia luciferase mutant (protein, SIGNAL (1)..(17), Gaussia luciferase mutant) MGVKVLFALICIAVAEAKPTENNEDFNIVAVASNFATTDLDADRGKLPGKKLPLEVLKEMEANARKAGCTRGCLICLSHIKCTPKMKKFIPGRCHTYEGDKESAQGGIGEAIVDIPEIPGFKDLEPMEQFIAQVDLCVDCTTGCLKGLANVHCSDLLKKWLPDRCAGFAVKIQKEVDNIKGAGGD
1.749

Please look at this molecule and report its Activity of mutant relative to wild-type Gaussia luciferase without the signal peptide: Q152K Q163S T167G S170V G174K Q175E K180: Gaussia luciferase mutant (protein) MGVKVLFALICIAVAEAKPTENNEDFNIVAVASNFATTDLDADRGKLPGKKLPLEVLKEMEANARKAGCTRGCLICLSHIKCTPKMKKFIPGRCHTYEGDKESAQGGIGEAIVDIPEIPGFKDLEPMEQFIAQVDLCVDCTTGCLKGLANVKCSDLLKKWLPSRCAGFAVKIQKEVDKIKGAGGD
0.011
